- MEASURED ON: human TLR2 (Homo sapiens (Human), UniProt O60603)
- Sequence (O60603 21-784): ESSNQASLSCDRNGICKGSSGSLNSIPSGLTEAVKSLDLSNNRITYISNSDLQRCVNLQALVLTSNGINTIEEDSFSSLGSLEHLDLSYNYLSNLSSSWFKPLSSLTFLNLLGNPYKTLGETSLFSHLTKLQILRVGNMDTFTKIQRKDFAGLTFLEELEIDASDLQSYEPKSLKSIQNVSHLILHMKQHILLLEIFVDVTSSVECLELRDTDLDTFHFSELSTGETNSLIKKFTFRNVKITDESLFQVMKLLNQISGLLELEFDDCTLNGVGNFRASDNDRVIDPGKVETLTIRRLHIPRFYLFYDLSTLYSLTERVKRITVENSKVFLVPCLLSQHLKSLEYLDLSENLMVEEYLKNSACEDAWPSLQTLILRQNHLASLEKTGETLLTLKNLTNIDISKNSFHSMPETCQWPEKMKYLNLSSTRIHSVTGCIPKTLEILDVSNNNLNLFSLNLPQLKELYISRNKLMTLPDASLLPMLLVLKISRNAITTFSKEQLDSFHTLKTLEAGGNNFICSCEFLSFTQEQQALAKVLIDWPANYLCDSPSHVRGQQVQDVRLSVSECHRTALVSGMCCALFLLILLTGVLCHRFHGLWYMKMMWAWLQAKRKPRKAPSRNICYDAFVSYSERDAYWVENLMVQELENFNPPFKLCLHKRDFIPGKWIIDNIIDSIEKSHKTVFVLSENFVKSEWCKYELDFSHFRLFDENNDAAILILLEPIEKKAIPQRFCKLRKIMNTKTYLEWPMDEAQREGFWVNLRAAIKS
- ASSAY METHOD TEXT: HEK-Blue hTLR2 antagonism assay (SEAP reporter), agonist Pam3CSK4
- Format: cell-based
- SETUP CONDITIONS: HEK-Blue hTLR2 cells; Pam3CSK4 (TLR1/2 agonist) at approx. 3×EC50; 18 h; 8-point dilutions
TEST READOUT: IC50 (µM)

(A) O=Cc1cc(C(=O)Nc2ncc(-c3ccc(F)cc3)s2)cc(F)c1O
(B) O=Cc1cc(C(=O)Nc2cnc(N3CCCC3)s2)cc(F)c1O
(C) CN(C(=O)c1cc(F)c(O)c(C=O)c1)C12CC(c3ccccc3)(C1)C2
Please rank everything listed above by IC50, with the minimum value first. Would you mind listing the labels in the order requested?
A, C, B
(A: 0.7 µM, C: 2.25 µM, B: 12.9 µM)

====

- MEASURED ON: UniProt O60603
- ASSAY METHOD TEXT: HEK-Blue hTLR2 antagonism assay (SEAP reporter), agonist Pam2CSK4
- Type: cell-based
- SETUP CONDITIONS: HEK-Blue hTLR2 cells; Pam2CSK4 (TLR2/6 agonist) at approx. 3×EC50; 18 h; 8-point dilutions
TEST READOUT: IC50 (µM)

Solved cases below.
MOLECULE: O=Cc1cc(-c2nc(-c3ccc(N4CCCC4)nc3)ns2)cc(F)c1O [Compound 130]
MEASURED NUMBER: 1.3
--
MOLECULE: O=Cc1cc(C(=O)NCCCc2ccc(N3CCCC3)cc2)cc(F)c1O [Compound 144]
MEASURED NUMBER: 9.3
--
MOLECULE: O=Cc1cc(C(=O)c2ccc(N3CCCC3)cc2)cc(F)c1O [Compound 14]
MEASURED NUMBER: 18.2
--
MOLECULE: O=Cc1cc(C(=O)N2CC[C@@H](c3ccc(N4CCCC4)cc3)C2)cc(F)c1O (single isomer, unassigned) [Compound 157]
MEASURED NUMBER: 3
--
MOLECULE: O=Cc1cc(C(=O)Nc2ncc(-c3ccc(F)cc3)s2)cc(F)c1O [Compound 11]
MEASURED NUMBER: 1

(a) O=Cc1cc(-c2nc(-c3ccc(N4CCCC4)cc3)ns2)cc(F)c1OC(=O)N1CCCC1 [Compound 172]
(b) O=Cc1cc(C(=O)Nc2ncc(N3CCN(C4CC4)CC3)s2)cc(F)c1O [Compound 5]
Which entry shows the lesser value of IC50 here, a or b ? Record your answer as the label of the chosen record.
a

(1) O=Cc1cc(C(=O)Nc2cnc(-c3ccnc(N4CCCC4)c3)s2)cc(F)c1O [Compound 168]
(2) O=Cc1cc(C(=O)N2CCC(c3ccc(N4CCCC4)cc3)C2)cc(F)c1O (stereo not shown) [Compound 82]
# returns the entry with the larger IC50; inputs 1 and 2 Record your answer as the label of the chosen record.
1

====

- MEASURED ON: human TLR2 (Homo sapiens (Human))
- ASSAY METHOD TEXT: HEK-Blue hTLR2 antagonism assay (SEAP reporter), agonist Pam2CSK4
- Assay type: cell-based
- SETUP CONDITIONS: HEK-Blue hTLR2 cells; Pam2CSK4 (TLR2/6 agonist) at approx. 3×EC50; 18 h; 8-point dilutions
- Experimental: Synthetic diacylated lipoprotein (Pam2CSK4, TLR2/6 agonist) and synthetic triacylated lipoprotein (Pam3CSK4, TLR1/2 agonist) were obtained from InvivoGen and were dissolved in endotoxin-free water to a concentration 1 mg/mL, vortexed until complete solubilization, and stored in aliquots at −20° C. […] On day 2, secreted alkaline phosphatase (SEAP) activity was detected in cell culture supernatants. […] IC50 values were calculated based on 8-point dilutions for each compound.
TEST READOUT: IC50 (µM)

MOLECULE: CN(C)C(=O)Oc1c(F)cc(-c2nc(-c3ccc(N4CCCC4)cc3)ns2)cc1C=O
MEASURED ON: human TLR2 (Homo sapiens (Human))
IC50 / µM: 0.9
//
MOLECULE: CN1CCN(/N=C/c2cc(-c3nc(-c4ccc(N5CCCC5)nc4)ns3)cc(F)c2O)CC1
MEASURED ON: human TLR2 (Homo sapiens (Human))
IC50 / µM: 1.1
//
MOLECULE: O=Cc1cc(C(=O)Nc2nnc(-c3ccccc3)s2)cc(F)c1O
MEASURED ON: human TLR2 (Homo sapiens (Human))
IC50 / µM: 6.7

(I) O/N=C\c1cc(-c2nc(-c3ccc(N4CCCC4)cc3)ns2)cc(F)c1O
(II) O=Cc1cc(C(=O)N2CC(c3ccc(N4CCCC4)cc3)C2)cc(F)c1O
(III) NS(=O)(=O)c1ccc(-c2nsc(-c3cc(F)c(O)c(C=O)c3)n2)cc1
Ordering criterion: IC50; begin with the maximum. Would you mind listing the labels in the order requested?
III, II, I
(III: 17.7 µM, II: 6.2 µM, I: 2.52 µM)

====

- MEASURED ON: human TLR9 (Homo sapiens (Human), UniProt Q9NR96)
- Sequence (Q9NR96 26-1032): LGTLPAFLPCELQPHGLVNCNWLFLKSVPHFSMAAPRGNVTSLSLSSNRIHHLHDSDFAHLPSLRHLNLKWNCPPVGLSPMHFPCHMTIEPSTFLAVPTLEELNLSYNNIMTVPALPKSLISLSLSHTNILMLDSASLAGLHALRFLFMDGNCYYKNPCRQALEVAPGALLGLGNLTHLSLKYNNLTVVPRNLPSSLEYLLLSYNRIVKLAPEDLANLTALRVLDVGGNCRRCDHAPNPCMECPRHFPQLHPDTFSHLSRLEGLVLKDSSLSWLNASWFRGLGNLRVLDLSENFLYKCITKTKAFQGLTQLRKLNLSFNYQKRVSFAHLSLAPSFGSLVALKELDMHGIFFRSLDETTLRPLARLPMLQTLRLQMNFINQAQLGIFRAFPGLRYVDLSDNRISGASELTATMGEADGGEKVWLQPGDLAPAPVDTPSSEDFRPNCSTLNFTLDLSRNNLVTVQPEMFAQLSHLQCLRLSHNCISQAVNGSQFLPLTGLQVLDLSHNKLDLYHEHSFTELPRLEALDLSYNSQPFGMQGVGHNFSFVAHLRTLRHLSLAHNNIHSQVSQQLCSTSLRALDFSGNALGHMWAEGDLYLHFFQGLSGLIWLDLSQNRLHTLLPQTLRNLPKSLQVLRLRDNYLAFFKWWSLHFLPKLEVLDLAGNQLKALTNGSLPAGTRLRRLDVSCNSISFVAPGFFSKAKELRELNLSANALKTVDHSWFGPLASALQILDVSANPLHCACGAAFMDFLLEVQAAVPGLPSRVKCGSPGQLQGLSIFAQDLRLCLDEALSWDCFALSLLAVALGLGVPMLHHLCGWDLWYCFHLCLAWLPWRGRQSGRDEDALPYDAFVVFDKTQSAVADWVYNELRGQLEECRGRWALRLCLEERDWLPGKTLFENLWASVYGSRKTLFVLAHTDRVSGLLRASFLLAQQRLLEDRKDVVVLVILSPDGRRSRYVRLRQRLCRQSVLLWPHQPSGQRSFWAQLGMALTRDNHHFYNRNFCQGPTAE
- ASSAY METHOD TEXT: HEK-Blue hTLR9 antagonism assay (SEAP reporter), agonist ODN 2006
- Type: cell-based
- SETUP CONDITIONS: HEK-Blue hTLR9 cells; ODN 2006 (TLR9 agonist) at approx. 3×EC50; 18 h; exact values 8-point, approximate (~ or <) 4-point dilutions; read-out: IC50 (μM) with ODN2006
TEST READOUT: IC50 (µM)

(1) O=Cc1cc(-c2cnn(-c3ccc(C(F)(F)F)cc3)c2)cc(F)c1O
(2) O=Cc1cc(C(=O)Nc2ncc(-c3ccccc3)s2)cc(F)c1O
Which entry shows the lesser value of IC50 here, 1 or 2 ? Record your answer as the label of the chosen record.
1

====

- MEASURED ON: human TLR2 (Homo sapiens (Human), UniProt O60603)
- ASSAY METHOD TEXT: HEK-Blue hTLR2 antagonism assay (SEAP reporter), agonist Pam3CSK4
- Type: cell-based
- SETUP CONDITIONS: HEK-Blue hTLR2 cells; Pam3CSK4 (TLR1/2 agonist) at approx. 3×EC50; 18 h; 8-point dilutions
TEST READOUT: IC50 (µM)

COMPOUND: O=Cc1cc(C(=O)N2CCOC(c3ccc(N4CCCC4)cc3)C2)cc(F)c1O (racemic)
UNITS: µM
IC50: 1.6
//
COMPOUND: O=Cc1cc(-c2cnc(-c3ccc(N4CCCC4)nc3)s2)ncc1O
UNITS: µM
IC50: 0.4
//
COMPOUND: O=Cc1cc(C(=O)Nc2ncc(N3CCCCC3)s2)cc(F)c1O
UNITS: µM
IC50: 1.7
//
COMPOUND: O=Cc1cc(C(=O)Nc2ncc(-c3ccc(C(F)(F)F)cc3)s2)cc(F)c1O
UNITS: µM
IC50: 0.6

(A) O=Cc1cc(-c2cnn(-c3ccc(C(F)(F)F)cc3)c2)cc(F)c1O
(B) CN1CCN(/N=C/c2cc(-c3nc(-c4ccc(N5CCCC5)nc4)ns3)cc(F)c2O)CC1
# returns the entry with the larger IC50; inputs A and B Record your answer as the label of the chosen record.
B

====

- MEASURED ON: human TLR2 (Homo sapiens (Human))
- ASSAY METHOD TEXT: HEK-Blue hTLR2 antagonism assay (SEAP reporter), agonist Pam2CSK4
- Type: cell-based
- SETUP CONDITIONS: HEK-Blue hTLR2 cells; Pam2CSK4 (TLR2/6 agonist) at approx. 3×EC50; 18 h; 8-point dilutions
TEST READOUT: IC50 (µM)

Solved cases below.
MOLECULE: CN1CCN(C(=O)Oc2c(F)cc(-c3nc(-c4ccc(N5CCCC5)cc4)ns3)cc2C=O)CC1
IC50 [µM]: 1.2
--
MOLECULE: O=Cc1cc(C(=O)N2CCCC2c2ccc(N3CCCC3)cc2)cc(F)c1O (racemic)
IC50 [µM]: 15.7
--
MOLECULE: O=Cc1cc(C(=O)Nc2ncc(-c3cccc(N4CCCC4)c3)s2)cc(F)c1O
IC50 [µM]: 0.6
--
MOLECULE: O=Cc1cc(C(=O)N2CCO[C@H](c3ccc(N4CCCC4)cc3)C2)cc(F)c1O (single isomer, unassigned)
IC50 [µM]: 4.34
--
MOLECULE: O=Cc1cc(-c2scnc2-c2ccccc2)cc(F)c1O
IC50 [µM]: 22.2

(I) COCCOCC(=O)Oc1c(F)cc(-c2nc(-c3ccc(N4CCCC4)cc3)ns2)cc1C=O
(II) O=Cc1cc(C(=O)Nc2ncc(-c3ccc(C(F)(F)F)cc3)s2)cc(F)c1O
(III) O=Cc1cc(C(=O)Nc2nc(-c3ccccc3)ns2)cc(F)c1O
(IV) O=Cc1cc(C(=O)Nc2coc(-c3ccccc3)n2)cc(F)c1O
Ascending by IC50, please. Would you mind listing the labels in the order requested?
II, I, IV, III

(A) Oc1c(F)cc(-c2nc(-c3ccc(N4CCCC4)cc3)ns2)cc1/C=N/N1CCOCC1
(B) CN1CCN(/N=C/c2cc(C(=O)N3CCC(c4ccc(N5CCCC5)cc4)CC3)cc(F)c2O)CC1
# returns the entry with the larger IC50; inputs A and B Record your answer as the label of the chosen record.
A
(A: 2.8 µM, B: 0.6 µM)
